# Tested on: endogenous TFE3
# measurement description: TFE3 nuclear translocation, immunocytochemistry high-content imaging
# Assay type: cell-based
# condition context: PKIS2 primary screening
reported endpoint: TFE3 % (%)
Give just the numeric value; % need not be written.

Prompt line: Fill blank: measured TFE3 % of the compound CC(=O)c1c(-c2ccncc2)[nH]c(-c2ccncc2)c1C [UNC10225248A] is ____.
Response line: 12.82

Prompt line: Now the compound Cl.Cl.NC[C@H](CC1CCCCC1)NC(=O)c1cc(Br)c(-c2ccnc3[nH]ccc23)s1 [UNC10225276A]
Response line: 33.43

Prompt line: Now the compound Nc1nccc2scc(-c3ccc4c(c3)CCN4C(=O)Cc3cc(F)ccc3F)c12 [UNC10225494A]
Response line: 17.46

Prompt line: Now the compound COc1cc(Nc2nccc(-c3c(-c4cccc(NC(=O)c5c(F)cccc5F)c4)nn4ncccc34)n2)cc(OC)c1OC [UNC10225433A]
Response line: 17.61

Prompt line: Now the compound O=c1cc(N2CCOCC2)nc2n(Cc3ccccc3F)ccn12 [UNC10225231A]
Response line: 8.12

Prompt line: Now the compound O=C(NC1CCN(c2ccnc(Nc3ccc(F)cc3)n2)C1)c1cc2ccccc2s1 (centres unmarked)
Response line: 24.94

Prompt line: Now the compound Cn1cncc1-c1cc2c(Nc3ccc(OCc4ccccc4)cc3)ncnc2cn1 [UNC10225035A]
Response line: 18.86

Prompt line: Now the compound Cc1cc(NCC(c2ccccc2)c2ccccc2)nc(NCc2ccc(C(F)(F)F)cc2)n1
Response line: 31.99

Prompt line: Now the compound Cl.NS(=O)(=O)c1cccc(Nc2cc(-c3ccc(F)cc3)n[nH]2)c1 [UNC10112764A]
Response line: 14.81

Prompt line: Now the compound Cc1cccc(-c2nc(Nc3ccc4nn[nH]c4c3)c3ccccc3n2)n1
Response line: 12.03

Prompt line: Now the compound CN1CCN(CCCNc2nccc(-c3c(-c4ccc(F)cc4)nn4cc(C(N)=O)ccc34)n2)CC1 [UNC10225188A]
Response line: 19.47

Prompt line: Now the compound Cc1ccc(S(=O)(=O)Nc2ccc(Nc3nccc(Nc4cccc5[nH]ncc45)n3)cc2)cc1
Response line: 6.80

Prompt line: Now the compound C[C@@H]1CCCCN1c1cc(-c2ccc3c(N)n[nH]c3c2)nc(N)n1
Response line: 12.52

Prompt line: Now the compound COc1nccc(-c2c(-c3ccc(F)cc3)ncn2CCCN2CCOCC2)n1 [UNC10225213A]
Response line: 16.14

Prompt line: Now the compound Nc1nc(-c2ccc3c(N)n[nH]c3c2)cc(N2CCCC2)n1
Response line: 14.08

Prompt line: Now the compound COc1cc(Nc2nccc(N3CCC(NC(=O)c4cccc(C#N)c4)C3)n2)cc(OC)c1OC (centres unmarked)
Response line: 13.31

Prompt line: Now the compound Cc1c(Cn2c3ccccc3n3c(=O)cc(N4CCOCC4)nc23)cccc1C(F)(F)F [UNC10225195A]
Response line: 10.62

====

# Test system: SH-SY5Y cells; further: reference of the scale not given here
# condition context: PKIS2 primary screening, DQ Red BSA spot count
reported endpoint: DQ Spot
Reply with the value as a number alone.

Prompt line: Fill blank: measured DQ Spot of the compound Nc1nc(-c2cccnc2)c(-c2ccnc3ccccc23)s1 [UNC10225309A] is ____.
Response line: 134.42

Prompt line: Now the compound COc1cc(Nc2nccc(N3CCC(NS(=O)(=O)c4ccc(NC(C)=O)cc4)CC3)n2)cc(OC)c1OC
Response line: 89.82

Prompt line: Now the compound COc1ccc(Nc2nccc(N3CCC(NS(=O)(=O)c4ccc(NC(C)=O)cc4)C3)n2)cc1 (stereo not shown)
Response line: 100.23

Prompt line: Now the compound COc1ccc(S(=O)(=O)NC2CCN(c3cc(C)nc(Nc4cccc(C#N)c4)n3)CC2)cc1
Response line: 82.66
